# TARGET UNDER TEST: Caspase-8 (Homo sapiens, UniProt Q14790)
# Sequence (Q14790 217-374 limits assumed): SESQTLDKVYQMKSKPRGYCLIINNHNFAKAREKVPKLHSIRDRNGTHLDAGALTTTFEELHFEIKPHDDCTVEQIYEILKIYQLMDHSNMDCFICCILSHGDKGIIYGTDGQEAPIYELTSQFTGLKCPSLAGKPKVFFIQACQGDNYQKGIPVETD
# Sequence (Q14790 385-479 limits assumed): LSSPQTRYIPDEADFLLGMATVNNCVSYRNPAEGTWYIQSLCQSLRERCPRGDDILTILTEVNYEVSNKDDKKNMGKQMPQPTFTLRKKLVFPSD
ENDPOINT: IC50

API: value(readout= IC50, system= Caspase-8 (Homo sapiens, UniProt Q14790), query= "Cn1c(=O)c2c(nc(S)n2C)n(C)c1=O" )
> 200 µM

* * *

# ASSAY REMARKS: Apparent permeability across basolateral to apical side in human Caco2 cells after 2 hrs by LC-MS/MS method
# Assay type: ADME, cell-based
# EXPERIMENTAL CONTEXT: caco-2, 2 h
ENDPOINT: Papp (×10⁻⁶ cm/s)
A number alone suffices; assume ×10⁻⁶ cm/s.

Any idea what its Papp is? The compound is Cn1c(=O)[nH]c(=O)c2c1nc(S)n2CC(O)COc1ccc(Cl)cc1 (stereo unspecified)
20.3

* * *

Activity values, listed per item
# TARGET UNDER TEST: Legumain (Homo sapiens)
# ASSAY REMARKS: Inhibition of AEP (unknown origin) assessed as residual activity at 1 uM using Cbz-Ala-Ala-Asn-AMC as substrate after 15 mins by fluorescence assay relative to control

Reference set (3 entries):
# RECORD SMILES, ENDPOINT, ENDPOINT VALUE
data = [
    ("Cc1ccc(Cn2c(S)nc3c2c(=O)n(C)c(=O)n3C)cc1", "Activity", "17.2%"),
    ("CCCCn1c(S)nc2c1c(=O)[nH]c(=O)n2C", "Activity", "14.8%"),
    ("C=CCn1c(S)nc2c1c(=O)n(C)c(=O)n2C", "Activity", "18.1%"),
]

Any idea what its Activity is? The compound is "Cc1ncc2c(=O)[nH]c(=O)n(C)c2n1"
91.9%

Any idea what its Activity is? The compound is "CSc1nc2c(c(=O)n(C)c(=O)n2C)n1C"
70.5%

Any idea what its Activity is? The compound is "Cc1ccc(Cn2c(S)nc3c2c(=O)[nH]c(=O)n3C)cc1"
12.3%

* * *

# TARGET UNDER TEST: Legumain (Homo sapiens) (UniProt Q99538)
# Sequence (whole entry): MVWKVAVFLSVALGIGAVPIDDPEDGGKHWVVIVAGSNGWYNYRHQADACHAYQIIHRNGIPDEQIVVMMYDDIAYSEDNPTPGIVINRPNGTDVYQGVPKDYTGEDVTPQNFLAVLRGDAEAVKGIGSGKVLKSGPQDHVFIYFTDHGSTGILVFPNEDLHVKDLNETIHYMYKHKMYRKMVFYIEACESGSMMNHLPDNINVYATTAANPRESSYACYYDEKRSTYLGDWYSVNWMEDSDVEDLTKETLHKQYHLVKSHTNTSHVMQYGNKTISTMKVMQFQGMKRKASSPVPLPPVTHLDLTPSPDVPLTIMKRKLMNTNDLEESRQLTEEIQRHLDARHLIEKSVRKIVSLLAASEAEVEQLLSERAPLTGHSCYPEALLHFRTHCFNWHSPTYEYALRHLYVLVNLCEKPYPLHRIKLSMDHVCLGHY
# ASSAY REMARKS: Inhibition of AEP (unknown origin) assessed as residual activity at 1 uM using Cbz-Ala-Ala-Asn-AMC as substrate after 15 mins by fluorescence assay relative to control
Activity values, listed per item
A number alone suffices; assume %.

Reference set (6 entries):
# RECORD SMILES, UNIT OF MEASUREMENT, ENDPOINT VALUE
rows = [
    ("CC(C)Cn1c(S)nc2c1c(=O)[nH]c(=O)n2C", "%", 15.7),
    ("Cn1c(=O)c2c(nc(S(=O)(=O)c3ccccc3)n2C)n(C)c1=O", "%", 98.9),
    ("CC(=O)Cn1c(S)nc2c1c(=O)[nH]c(=O)n2C", "%", 69.4),
    ("Cn1c(=O)n(Cc2ccccc2)c(=O)c2c1nc(S)n2Cc1ccccc1", "%", 17.2),
    ("CCCn1c(S)nc2c1c(=O)[nH]c(=O)n2C", "%", 14.9),
    ("Cn1c(=O)c2c(ncn2C)n(C)c1=O", "%", 74.3),
]

Any idea what its Activity is? The molecule is "Cn1c(S)nc2c1c(=O)[nH]c(=O)n2C"
11.5

Any idea what its Activity is? The molecule is "COCCn1c(S)nc2c1c(=O)[nH]c(=O)n2C"
13.8

Any idea what its Activity is? The molecule is "COc1ccc(OC[C@@H](O)Cn2c(S)nc3c2c(=O)[nH]c(=O)n3C)cc1"
18.5

Any idea what its Activity is? The molecule is "Cn1c(=O)[nH]c(=O)c2c1nc(S)n2C[C@H](O)CO"
85.4

Any idea what its Activity is? The molecule is "Cn1c(=O)[nH]c(=O)c2c1nc(S)n2C[C@H](O)COc1ccccc1"
34.6

Any idea what its Activity is? The molecule is "Cn1c(=O)c2c(nc(S(C)(=O)=O)n2C)n(C)c1=O"
98.3
